From: patent US20260263646A1

In this section we review reported crosslinking efficiency values for a set of binders.
# experimentalSystem: T1, PSMA (commercial, Sino Bio cat #15877-H07H) (UniProt Q04609 44-750)
# T1 construct: also called receptor
# T1 sequence (Q04609 44-750 limits assumed): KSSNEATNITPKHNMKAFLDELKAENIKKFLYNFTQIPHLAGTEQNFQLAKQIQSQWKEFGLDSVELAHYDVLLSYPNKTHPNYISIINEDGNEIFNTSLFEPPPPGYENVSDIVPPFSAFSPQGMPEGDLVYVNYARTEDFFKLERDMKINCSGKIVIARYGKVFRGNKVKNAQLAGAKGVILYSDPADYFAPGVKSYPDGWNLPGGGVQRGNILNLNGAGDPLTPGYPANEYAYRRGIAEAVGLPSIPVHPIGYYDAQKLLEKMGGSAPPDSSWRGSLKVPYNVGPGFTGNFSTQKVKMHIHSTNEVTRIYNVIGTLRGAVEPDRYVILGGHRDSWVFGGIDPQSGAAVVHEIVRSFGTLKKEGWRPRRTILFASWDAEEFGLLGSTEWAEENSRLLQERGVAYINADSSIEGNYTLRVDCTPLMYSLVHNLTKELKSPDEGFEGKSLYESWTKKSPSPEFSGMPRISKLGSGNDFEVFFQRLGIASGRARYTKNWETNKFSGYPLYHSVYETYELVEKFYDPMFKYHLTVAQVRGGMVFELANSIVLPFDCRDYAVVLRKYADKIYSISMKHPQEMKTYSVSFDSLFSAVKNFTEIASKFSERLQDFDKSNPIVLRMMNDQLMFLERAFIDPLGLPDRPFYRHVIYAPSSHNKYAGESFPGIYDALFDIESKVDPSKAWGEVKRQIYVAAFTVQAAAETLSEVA
# assayDetails: SDS-PAGE, overnight 37C, ~7:1 sdAb:PSMA

Use the examples below as a reference point.
binder	crosslinking efficiency
C1-110FSY (VHH, not fully specified; FSY at 110, plus C-terminal His6) VHH: QVQLQESGGGSVQAGGSLRLSCTAPGYTDSNYYMSWFRQAPGKEREWVAGVNTGRGSTSYADSVKGRFTISQDNAKNTMFLQMNSLKPEDTAIYYCAVAACHFCDSLPKXQDEYILWGQGTQVTVSS	< 50%
C1-29FSY (VHH, not fully specified; FSY at 29, plus C-terminal His6) VHH: QVQLQESGGGSVQAGGSLRLSCTAPGYTXSNYYMSWFRQAPGKEREWVAGVNTGRGSTSYADSVKGRFTISQDNAKNTMFLQMNSLKPEDTAIYYCAVAACHFCDSLPKTQDEYILWGQGTQVTVSS	> 50%
C1-99FSY (VHH, not fully specified; FSY at 99, plus C-terminal His6) VHH: QVQLQESGGGSVQAGGSLRLSCTAPGYTDSNYYMSWFRQAPGKEREWVAGVNTGRGSTSYADSVKGRFTISQDNAKNTMFLQMNSLKPEDTAIYYCAVXACHFCDSLPKTQDEYILWGQGTQVTVSS	< 50%

Here is the next item to consider.
Exercise: Returns the measured crosslinking efficiency for the input binder. Input: C1-115FSY (VHH, not fully specified; FSY at 115, plus C-terminal His6) VHH: QVQLQESGGGSVQAGGSLRLSCTAPGYTDSNYYMSWFRQAPGKEREWVAGVNTGRGSTSYADSVKGRFTISQDNAKNTMFLQMNSLKPEDTAIYYCAVAACHFCDSLPKTQDEYXLWGQGTQVTVSS
Solution: < 50%
